Reported MFI is given for each of the following binders.
Target: human DLL3 protein expressed on CHO-K1 recombinant cells (human DLL3 extracellular segment fused to EpCAM transmembrane and intracellular regions) (human) (UniProt Q9NYJ7)
Sequence (Q9NYJ7 other isoform, or with tags, fused parts or gaps limits assumed): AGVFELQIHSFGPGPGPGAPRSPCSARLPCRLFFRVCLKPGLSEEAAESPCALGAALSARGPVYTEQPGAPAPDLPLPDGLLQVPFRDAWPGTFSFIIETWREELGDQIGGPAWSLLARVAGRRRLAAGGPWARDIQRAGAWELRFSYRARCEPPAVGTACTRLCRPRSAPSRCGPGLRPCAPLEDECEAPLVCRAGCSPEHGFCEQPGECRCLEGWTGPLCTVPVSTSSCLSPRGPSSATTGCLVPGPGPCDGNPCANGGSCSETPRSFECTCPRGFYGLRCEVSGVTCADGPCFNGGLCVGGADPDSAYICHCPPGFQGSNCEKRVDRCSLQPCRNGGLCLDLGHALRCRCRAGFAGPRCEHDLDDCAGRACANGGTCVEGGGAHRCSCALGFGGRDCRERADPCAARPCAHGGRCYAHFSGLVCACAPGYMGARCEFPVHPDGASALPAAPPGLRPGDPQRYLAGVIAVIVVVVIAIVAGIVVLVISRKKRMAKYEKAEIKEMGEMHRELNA
Assay: FACS, CHO-K1 hDLL3 cells, 0.0064 nM antibody
The reply should contain only the number, in MFI.

The examples below pair each entry with its known result.
binder | resultUnit | MFI
Hab014VL1VH2-hFc (scFv, part only; not given: VL-VH linker and human IgG1 Fc, V domains shown, not shown: another chain or arm of the molecule; a dimerising Fc or GST; small tags and cut ends) VL: DIQMTQSPSSLSASVGDRVTITCKASEDIYNRLAWYQQKPGKVPKLLISGATSLETGVPSRFSGSGSGTDFTLTISSLQPEDVATYYCQQYWSLPWTFGGGTKVEIK VH: EVQLVQSGAEVKKPGASVKVSCKASGYTFTDYYMNWVRQAPGQRLEWMGDINPNHGDTGYNQKFTGRVTLTVDKSASTAYMELSSLRSEDTAVYYCARNFFYYGTTYGWYFDVWGQGTTVTVSS | MFI | 306
Hab015VL5VH6a-hFc (scFv, part only; not given: scFv linker and human IgG1 Fc, V domains shown, not shown: another chain or arm of the molecule; a dimerising Fc or GST; small tags and cut ends) VL: NIQMTQSPSSLSASVGDRVTITCKASENVGTYVSWYQQKPGKSPKLLIYGASNRYTGVPSRFSGSGSGTDFTLTISSLQPEDFATYYCGQFYSFPSTFGGGTKVEIK VH: EVQLVESGGGLVKPGGSLRLSCAASGITFSNFWMNWVRQAPEKGLEWVGQIRLKSDDYATHYAESVKGRFTISREDSKNTVYLQMNSLKTEDTAVYYCTTGYYFDYWGQGTTVTVSS | MFI | 153

Sure, the documented MFI for Hab015VL5VH1b-hFc (scFv, part only; not given: VL-VH linker and human IgG1 Fc, V domains shown, not shown: another chain or arm of the molecule; a dimerising Fc or GST; small tags and cut ends) VL: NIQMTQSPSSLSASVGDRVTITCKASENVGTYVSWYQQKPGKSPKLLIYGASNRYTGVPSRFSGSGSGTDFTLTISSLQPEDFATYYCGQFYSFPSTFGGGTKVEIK VH: EVQLVESGGGLVKPGGSLRLSCAASGITFSNFWMNWVRQAPGKGLEWVGQIRLKSEDYATHYAESVKGRFTISREDSKNTVYLQMNSLKTEDTAVYYCTTGYYFDYWGQGTTVTVSS is 174
